# measurement-protocol: growth suppression of yeast trafficking mutant, preliminary HTS, modulators of trafficking downstream of Golgi apparatus project, 1536-format plate, OD 615 nm (AID 637)
# condition-info: yeast transport mutant growth, absorbance 615 nm, 18 h; stronger effect = higher value
measured-parameter: inhibition (%)

molecule=COc1ccc2c(CC(=O)Nc3nnc(C4CC4)s3)coc2c1 measured_parameter=inhibition endpoint_unit=% reported_value=-1.9
molecule="COc1ccc2cc(C(c3nnnn3C3CCCCC3)N3CCCCCC3)c3nnnn3c2c1 (stereo not given)" measured_parameter=inhibition endpoint_unit=% reported_value=-2.86
molecule="COCCNC(=O)C(c1ccc(O)cc1)N(Cc1ccco1)C(=O)CCC(=O)Nc1nccs1 (stereo not given)" measured_parameter=inhibition endpoint_unit=% reported_value=-6.23
molecule=CCOC(=O)c1ccc(S(=O)(=O)NC2CCCCCCC2)n1C measured_parameter=inhibition endpoint_unit=% reported_value=1.11
molecule=CCCn1c(C)nc2c(c1=O)c1nc3ccccc3nc1n2CCc1ccccc1 measured_parameter=inhibition endpoint_unit=% reported_value=0.5

###

Here the recorded viability increase is given for each entry.
# measurement-protocol: viability gain of MRP-1-high H69AR cells under doxorubicin, pilot screen, MRP-1 activator project, CellTiter-Glo, duplicate (AID 807);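 also: compound pretreatment 18-22 h then 72 h combined with doxorubicin; 0% = doxorubicin alone and 100% = vehicle without doxorubicin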
# condition-info: H69AR viability with doxorubicin, CellTiter-Glo luminescence; at 10 µM; stronger effect = higher value
measured-parameter: viability increase (%)

molecule=COC(=O)c1coc(-c2ccc(C)cc2)c1C(=O)OC reported_value=0.08
molecule=O=S(=O)(Nc1cccc(-c2nc3cccnc3s2)c1)c1ccc2c(c1)OCCO2 reported_value=0.73
molecule="O=C1CC(c2ccc(S(=O)(=O)NCc3ccncc3)cc2)CN1 (stereo unspecified)" reported_value=-0.07
molecule=CCOc1ccc(CC(=O)NCc2cn3c(C)csc3n2)cc1 reported_value=-0.15
molecule=COC(=O)C1=C(C)N(c2ccc(F)cc2)C(=O)C1 reported_value=-2.11
molecule=COc1cccc(-c2csc(NC(=O)C3CC3)n2)c1 reported_value=4.92

###

# measured-on: Receptor tyrosine-protein kinase erbB-2 (Homo sapiens) (UniProt P04626)
# Sequence (P04626 whole entry, looked up): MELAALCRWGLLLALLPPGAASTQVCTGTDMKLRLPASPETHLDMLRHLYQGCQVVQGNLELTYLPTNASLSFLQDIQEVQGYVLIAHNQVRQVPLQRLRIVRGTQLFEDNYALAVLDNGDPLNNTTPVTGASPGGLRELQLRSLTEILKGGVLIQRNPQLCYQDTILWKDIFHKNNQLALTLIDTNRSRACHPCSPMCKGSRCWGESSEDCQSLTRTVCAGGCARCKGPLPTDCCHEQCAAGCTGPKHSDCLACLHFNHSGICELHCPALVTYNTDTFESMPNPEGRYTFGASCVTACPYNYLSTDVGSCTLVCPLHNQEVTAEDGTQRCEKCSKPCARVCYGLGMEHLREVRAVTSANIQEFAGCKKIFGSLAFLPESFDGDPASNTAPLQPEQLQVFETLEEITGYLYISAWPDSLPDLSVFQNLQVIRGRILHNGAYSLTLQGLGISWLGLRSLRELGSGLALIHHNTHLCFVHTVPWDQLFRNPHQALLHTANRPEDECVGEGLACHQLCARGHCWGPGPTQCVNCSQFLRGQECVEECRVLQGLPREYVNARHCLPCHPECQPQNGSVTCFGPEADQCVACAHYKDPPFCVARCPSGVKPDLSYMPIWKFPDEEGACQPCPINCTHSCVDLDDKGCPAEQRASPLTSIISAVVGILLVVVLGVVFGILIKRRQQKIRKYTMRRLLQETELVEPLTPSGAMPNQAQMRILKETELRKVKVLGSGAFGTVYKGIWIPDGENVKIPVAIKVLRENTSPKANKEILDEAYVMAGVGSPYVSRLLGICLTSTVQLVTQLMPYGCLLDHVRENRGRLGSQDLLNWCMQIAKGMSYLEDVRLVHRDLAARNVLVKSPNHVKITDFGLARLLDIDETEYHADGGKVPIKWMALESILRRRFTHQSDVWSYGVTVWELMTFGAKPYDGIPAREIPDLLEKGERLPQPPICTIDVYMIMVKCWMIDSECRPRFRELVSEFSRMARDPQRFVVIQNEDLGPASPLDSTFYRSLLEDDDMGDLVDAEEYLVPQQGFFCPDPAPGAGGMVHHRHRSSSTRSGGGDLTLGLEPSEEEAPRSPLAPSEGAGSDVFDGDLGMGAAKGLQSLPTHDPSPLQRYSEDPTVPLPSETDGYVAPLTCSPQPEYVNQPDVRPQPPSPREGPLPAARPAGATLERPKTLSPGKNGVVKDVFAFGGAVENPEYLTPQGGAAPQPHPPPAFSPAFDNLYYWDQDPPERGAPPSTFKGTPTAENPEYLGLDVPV
# measurement-protocol: reducers of endogenous Her2 protein level, primary screen, SKBR3 breast tumor cells, AlphaScreen, ATP viability (AID 461);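 also: lower value means less Her2 protein in the cells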
# condition-info: 18-24 h, at 10 µM, stronger effect = lower value
Here the recorded Her2 level is given for each entry.
measured-parameter: Her2 level (%)

molecule=COc1ccc(OC)c(C(=O)CSc2nnc(-c3ccc(OC)c(OC)c3)o2)c1 measured_on="Receptor tyrosine-protein kinase erbB-2 (Homo sapiens) (UniProt P04626)" endpoint_unit=% reported_value=104
molecule=O=C(c1ccccc1Oc1nnnn1-c1ccccc1)N1CCOCC1 measured_on="Receptor tyrosine-protein kinase erbB-2 (Homo sapiens) (UniProt P04626)" endpoint_unit=% reported_value=84
molecule=COC(=O)c1ccc2ncccc2c1 measured_on="Receptor tyrosine-protein kinase erbB-2 (Homo sapiens) (UniProt P04626)" endpoint_unit=% reported_value=131
molecule="COc1cc(OC)cc(C(=O)N2c3ccc(F)cc3CCC2C)c1 (configuration not stated)" measured_on="Receptor tyrosine-protein kinase erbB-2 (Homo sapiens) (UniProt P04626)" endpoint_unit=% reported_value=89
molecule="CCn1cc(C(C)NC(=O)COc2ccc(Cl)cc2C)c(C)n1 (configuration not stated)" measured_on="Receptor tyrosine-protein kinase erbB-2 (Homo sapiens) (UniProt P04626)" endpoint_unit=% reported_value=101
molecule=CC[N+](C)(C)Cc1ccccc1Br measured_on="Receptor tyrosine-protein kinase erbB-2 (Homo sapiens) (UniProt P04626)" endpoint_unit=% reported_value=92
molecule=c1ccc(OCCCn2nnc(-c3cccnc3)n2)cc1 measured_on="Receptor tyrosine-protein kinase erbB-2 (Homo sapiens) (UniProt P04626)" endpoint_unit=% reported_value=87.5
molecule="O=C(C1CCCN(S(=O)(=O)c2ccc(Br)s2)C1)N1CCCCCC1 (configuration not stated)" measured_on="Receptor tyrosine-protein kinase erbB-2 (Homo sapiens) (UniProt P04626)" endpoint_unit=% reported_value=95
molecule=COc1ccc2c(C(F)(F)F)cc(=O)oc2c1C measured_on="Receptor tyrosine-protein kinase erbB-2 (Homo sapiens) (UniProt P04626)" endpoint_unit=% reported_value=99.5
molecule=COC(=O)CCC(=O)Nc1cccc(Br)c1 measured_on="Receptor tyrosine-protein kinase erbB-2 (Homo sapiens) (UniProt P04626)" endpoint_unit=% reported_value=85
molecule=CN(C)CCOc1ccccc1Cc1ccccc1 measured_on="Receptor tyrosine-protein kinase erbB-2 (Homo sapiens) (UniProt P04626)" endpoint_unit=% reported_value=95.5
molecule=CCC(=O)N1CCc2cc(S(=O)(=O)CCC(=O)Nc3ccc(C)c(F)c3)ccc21 measured_on="Receptor tyrosine-protein kinase erbB-2 (Homo sapiens) (UniProt P04626)" endpoint_unit=% reported_value=98.5
